test system: FXR:RXRa (NR concentration 270 nM, RXRa partner concentration 90 nM); assay: PBM binding z-score (relative to random genomic background probes); higher = stronger binding; sequences stand for … in GC…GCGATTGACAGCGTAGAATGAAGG
measure_name: PBM binding z-score
# print the numeric value only

Challenge: Quick one: PBM binding z-score of TCTCGGAGGACACGAAGGTAAGAGCTTTCCAGAG ?
Response given: 0.0947

Challenge: Same thing, different sequence: ATACCAAGGGGATCGTGAGGTCGTTGATACTAAC
Response given: 0.492

Challenge: Same thing, different sequence: GCAGACAGGTGAAACGCAGGAAACTCAGGGTGGC
Response given: -0.517

Challenge: Same thing, different sequence: TCTATTAGTTGATTAGCGCAACCGAAACAGCGGA
Response given: 0.828

Challenge: Same thing, different sequence: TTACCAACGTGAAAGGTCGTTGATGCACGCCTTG
Response given: 1.28

Challenge: Same thing, different sequence: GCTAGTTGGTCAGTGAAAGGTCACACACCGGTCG
Response given: 3.55

Challenge: Same thing, different sequence: CCTACTGCGCCACGAAAGGTCATTGATTCAGTGA
Response given: 3.86

Challenge: Same thing, different sequence: ACTATTAGTTAAGACGAGGGCAACCGATAGGTTG
Response given: 0.44

Challenge: Same thing, different sequence: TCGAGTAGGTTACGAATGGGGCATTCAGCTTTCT
Response given: 0.143

Challenge: Same thing, different sequence: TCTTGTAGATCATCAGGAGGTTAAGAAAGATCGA
Response given: 0.0818

Challenge: Same thing, different sequence: TCATATAGGTAAACGTGAAAGTCGAACGATATGA
Response given: 0.211

Challenge: Same thing, different sequence: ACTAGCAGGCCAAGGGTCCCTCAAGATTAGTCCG
Response given: -0.253

Challenge: Same thing, different sequence: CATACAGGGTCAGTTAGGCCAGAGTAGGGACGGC
Response given: 3.37

Challenge: Same thing, different sequence: AAGACAGGGTCACTAGGCCAGAGTAGGTACGAAT
Response given: 5.99

Challenge: Same thing, different sequence: GCGACTGGGGCATCAGCAGGTTAACATAACTTAA
Response given: -0.169

Challenge: Same thing, different sequence: ACTAGCAGGCCAAGGGTCACTAAAGATTAGTCCG
Response given: 2.25

Challenge: Same thing, different sequence: ACTAGCCGGCCAAGGGTCACTCAAGATTAGTCCG
Response given: 2.41

Challenge: Same thing, different sequence: GCTGCTAGGTCTACTGATGGTCAGCTAAAGCTCG
Response given: -0.686

Challenge: Same thing, different sequence: TTACCAAGGGGAAGGTCGTTGATCCCTCTGTAGA
Response given: 0.907

Challenge: Same thing, different sequence: TCATATAGGTAAATGCTAGGTGAAATTCCGATCT
Response given: 0.456

Challenge: Same thing, different sequence: GCTGCTAGGTCAGGTTGGTCAGATAACGGGTACG
Response given: 1.44

Challenge: Same thing, different sequence: TCTTGCAGGCCAGAGGGTCACTCAAGAGGTACGG
Response given: 1.13

Challenge: Same thing, different sequence: CCTAGTGGGCCATTCAGAGGTCATTGATCATATG
Response given: 2.85

Challenge: Same thing, different sequence: AGAACGAGGGCACGCTGAGTTGAGAGCAGAGTAG
Response given: 1.03

Challenge: Same thing, different sequence: CCTTACGGGTGACTGACAGGTTATAGCATTTGGA
Response given: 0.488

Challenge: Same thing, different sequence: ACTATTAGTTGTGACGAGGGCAACCGATAGGTTG
Response given: -0.101

Challenge: Same thing, different sequence: TCTTGTAGATAAATAGAGGTTAAGAAAGTGCGCT
Response given: 1.41

Challenge: Same thing, different sequence: TTACCAAGGTGAGCTGAGGTTGTTGATCCAACTC
Response given: 0.871

Challenge: Same thing, different sequence: CCTGCTAGGTCAATGGTCAGCTGAAGCAGCTCGC
Response given: 3.06

Challenge: Same thing, different sequence: TAGCCTAGGTCAGATCGGACCAGTATACGCTATA
Response given: 1.36
